sequences and their reported total protein half-life in vivo
assay: total protein half-life in vivo (active degradation + dilution); higher = more stable protein; settings: wild type E. coli NCM3722; growth: P-lim chemostat; doubling time 12 h

>  <polymer_sequence>
MDALELLINRRSASRLAEPAPTGEQLQNILRAGMRAPDHKSMQPWHFFVIEGEGRERFSAVLEQGAIAAGSDDKAIDKARNAPFRAPLIITVVAKCEENHKVPRWEQEMSAGCAVMAMQMAAVAQGFGGIWRSGALTESPVVREAFGCREQDKIVGFLYLGTPQLKASTSINVPDPTPFVTYF [P0ACY1]

>  <readout_unit>
h

>  <total protein half-life in vivo>
11.6

$$$$
>  <polymer_sequence>
MHPMLNIAVRAARKAGNLIAKNYETPDAVEASQKGSNDFVTNVDKAAEAVIIDTIRKSYPQHTIITEESGELEGTDQDVQWVIDPLDGTTNFIKRLPHFAVSIAVRIKGRTEVAVVYDPMRNELFTATRGQGAQLNGYRLRGSTARDLDGTILATGFPFKAKQYATTYINIVGKLFNECADFRRTGSAALDLAYVAAGRVDGFFEIGLRPWDFAAGELLVREAGGIVSDFTGGHNYMLTGNIVAGNPRVVKAMLANMRDELSDALKR [P0ADG4]

>  <readout_unit>
h

>  <total protein half-life in vivo>
14

$$$$
>  <polymer_sequence>
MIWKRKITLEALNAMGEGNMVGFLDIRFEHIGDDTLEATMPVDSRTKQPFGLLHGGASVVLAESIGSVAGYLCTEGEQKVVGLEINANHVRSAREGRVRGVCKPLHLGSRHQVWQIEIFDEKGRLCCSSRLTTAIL

>  <readout_unit>
h

>  <total protein half-life in vivo>
10.7

$$$$
>  <polymer_sequence>
MPDQTQQFSFKVLTINIHKGFTAFNRRFILPELRDAVRTVSADIVCLQEVMGAHEVHPLHVENWPDTSHYEFLADTMWSDFAYGRNAVYPEGHHGNAVLSRYPIEHYENRDVSVDGAEKRGVLYCRIVPPMTGKAIHVMCVHLGLREAHRQAQLAMLAEWVNELPDGEPVLVAGDFNDWRQKANHPLKVQAGLDEIFTRAHGRPARTFPVQFPLLRLDRIYVKNASASAPTALPLRTWRHLSDHAPLSAEIHL [P0AAW1]

>  <readout_unit>
h

>  <total protein half-life in vivo>
11.5

$$$$
>  <polymer_sequence>
MIISAASDYRAAAQRILPPFLFHYMDGGAYSEYTLRRNVEDLSEVALRQRILKNMSDLSLETTLFNEKLSMPVALAPVGLCGMYARRGEVQAAKAADAHGIPFTLSTVSVCPIEEVAPAIKRPMWFQLYVLRDRGFMRNALERAKAAGCSTLVFTVDMPTPGARYRDAHSGMSGPNAAMRRYLQAVTHPQWAWDVGLNGRPHDLGNISAYLGKPTGLEDYIGWLGNNFDPSISWKDLEWIRDFWDGPMVIKGILDPEDARDAVRFGADGIVVSNHGGRQLDGVLSSARALPAIADAVKGDIAILADSGIRNGLDVVRMIALGADTVLLGRAFLYALATAGQAGVANLLNLIEKEMKVAMTLTGAKSISEITQDSLVQGLGKELPAALAPMAKGNAA

>  <readout_unit>
h

>  <total protein half-life in vivo>
6.38

$$$$
>  <polymer_sequence>
MQTKKNEIWVGIFLLAALLAALFVCLKAANVTSIRTEPTYTLYATFDNIGGLKARSPVSIGGVVVGRVADITLDPKTYLPRVTLEIEQRYNHIPDTSSLSIRTSGLLGEQYLALNVGFEDPELGTAILKDGDTIQDTKSAMVLEDLIGQFLYGSKGDDNKNSGDAPAAAPGNNETTEPVGTTK

>  <readout_unit>
h

>  <total protein half-life in vivo>
13.7

$$$$
>  <polymer_sequence>
MKKLKLHGFNNLTKSLSFCIYDICYAKTAEERDGYIAYIDELYNANRLTEILSETCSIIGANILNIARQDYEPQGASVTILVSEEPVDPKLIDKTEHPGPLPETVVAHLDKSHICVHTYPESHPEGGLCTFRADIEVSTCGVISPLKALNYLIHQLESDIVTIDYRVRGFTRDINGMKHFIDHEINSIQNFMSDDMKALYDMVDVNVYQENIFHTKMLLKEFDLKHYMFHTKPEDLTDSERQEITAALWKEMREIYYGRNMPAV [P0A7F6]

>  <readout_unit>
h

>  <total protein half-life in vivo>
7.61

$$$$
>  <polymer_sequence>
MSRRAGTPTAKKVTQLVNVEEHVEGFRQVREAHRRELIDDYVELISDLIREVGEARQVDMAARLGVSQPTVAKMLKRLATMGLIEMIPWRGVFLTAEGEKLAQESRERHQIVENFLLVLGVSPEIARRDAEGMEHHVSEETLDAFRLFTQKHGAK [P0A9F1]

>  <readout_unit>
h

>  <total protein half-life in vivo>
8.06

$$$$
>  <polymer_sequence>
MIVRPQQHWLRRIFVWHGSVLSKISSRLLLNFLFSIAVIFMLPWYTHLGIKFTLAPFSILGVAIAIFLGFRNNAGYARYVEARKLWGQLMIASRSLLREVKTTLPDSASVREFARLQIAFAHCLRMTLRKQPQAEVLAHYLKTEDLQRVLASNSPANRILLIMGEWLAVQRRNGQLSDILFISLNDRLNDISAVLAGCERIAYTPIPFAYTLILHRTVYLFCIMLPFALVVDLHYMTPFISVLISYTFISLDCLAEELEDPFGTENNDLPLDAICNAIEIDLLQMNDEAEIPAKILPDRHYQLT

>  <readout_unit>
h

>  <total protein half-life in vivo>
11.5

$$$$
>  <polymer_sequence>
MKLDEIARLAGVSRTTASYVINGKAKQYRVSDKTVEKVMAVVREHNYHPNAVAAGLRAGRTRSIGLVIPDLENTSYTRIANYLERQARQRGYQLLIACSEDQPDNEMRCIEHLLQRQVDAIIVSTSLPPEHPFYQRWANDPFPIVALDRALDREHFTSVVGADQDDAEMLAEELRKFPAETVLYLGALPELSVSFLREQGFRTAWKDDPREVHFLYANSYEREAAAQLFEKWLETHPMPQALFTTSFALLQGVMDVTLRRDGKLPSDLAIATFGDNELLDFLQCPVLAVAQRHRDVAERVLEIVLASLDEPRKPKPGLTRIKRNLYRRGVLSRS [P0ACP1]

>  <readout_unit>
h

>  <total protein half-life in vivo>
10.6

$$$$
>  <polymer_sequence>
MSNKNVNVRKSQEITFCLLAGILMFMAMMVAGRAEAGVALGATRVIYPAGQKQEQLAVTNNDENSTYLIQSWVENADGVKDGRFIVTPPLFAMKGKKENTLRILDATNNQLPQDRESLFWMNVKAIPSMDKSKLTENTLQLAIISRIKLYYRPAKLALPPDQAAEKLRFRRSANSLTLINPTPYYLTVTELNAGTRVLENALVPPMGESTVKLPSDAGSNITYRTINDYGALTPKMTGVME

>  <readout_unit>
h

>  <total protein half-life in vivo>
13.2

$$$$
